Target: Carbonic anhydrase 9 (Homo sapiens, UniProt Q16790)
Assay: Inhibition of human CA9 pre-incubated for 15 mins by stopped-flow CO2 hydration method
pKi: −log10 of the molar value. Counter-ions that a name gives are not always drawn.
# if value of pKi reaches 7, tag yes (1); if it stays below, tag no (0)

>>> print(df.to_string())
                                    molecule    group
 0                            S=C(S)Nc1nccs1  yes (1)
 1  S=C([S-])N1CCOCC1.[Na+] [MORPHOLINECARBAMODITHIOATE SODIUM SALT]  yes (1)
 2  CCCCN(CCCC)C(=S)S [DIBUTYLCARBAMODITHIOATE SODIUM SALT]  yes (1)
 3  CN(C)C(=S)S [SODIUM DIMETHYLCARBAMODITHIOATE]   no (0)
 4  CCCN(CCC)C(=S)S [DIPROPYLCARBAMODITHIOATE SODIUM SALT]  yes (1)
 5  S=C([S-])N1CCN(C(=S)[S-])CC1.[Na+].[Na+] [PIPERAZINECARBAMODITHIOATE DISODIUM SALT]  yes (1)
 6  CCCCCCN(CCCCCC)C(=S)S [DIHEXYLCARBAMODITHIOATE SODIUM SALT]  yes (1)
 7  S=C(S)Nc1ccccc1 [TRIETHYLAMMONIUM PHENYLCARBAMODITHIOATE]  yes (1)
 8  CCCCN(CC)C(=S)S [ETHYLBUTYLCARBAMODITHIOATE SODIUM SALT]  yes (1)
 9             N#CC1(c2ccccc2)CCN(C(=S)S)CC1   no (0)
10  CN(C(=S)S)c1ccccc1 [SODIUM METHYL(PHENYL)CARBAMODITHIOATE]  yes (1)
11  S=C(S)NCc1ccccc1 [SODIUM BENZYLCARBAMODITHIOATE]  yes (1)
12          CCN(CC)C(=S)S [DITIOCARB SODIUM]   no (0)
13  CN(Cc1ccccc1)C(=S)S [SODIUM BENZYL(METHYL)CARBAMODITHIOATE]  yes (1)
14  CC(C)CN(CC(C)C)C(=S)S [DIISOBUTYLCARBODITHIOIC ACID SODIUM SALT]  yes (1)
15            S=C(S)NCCN(CCNC(=S)S)CCNC(=S)S  yes (1)
16  S=C(S)NN1CCOCC1 [POTASSIUM MORPHOLINOCARBAMODITHIOATE]  yes (1)
17                  O=C(O)[C@@H]1CCCN1C(=S)S  yes (1)
18                            O=C(O)CNC(=S)S  yes (1)

* * *

Here's what we have: Ki numbers for Carbonic anhydrase 1 (Homo sapiens).
measured_parameter: Ki (nM)

>>> df
                                   compound  measured_parameter  units  result
0                             S=C(S)N1CCCC1                  Ki     nM    0.96
1  CN(C)C(=S)S [SODIUM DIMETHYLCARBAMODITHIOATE]                  Ki     nM     699

* * *

What follows is a record of Ki for Carbonic anhydrase 12 (Homo sapiens, UniProt O43570).
measured_parameter: Ki

In [3]: df
Out[3]:
                                   compound                             target_entity   result
0          CCN(CC)C(=S)S [DITIOCARB SODIUM]  Carbonic anhydrase 12 (Homo sapiens, UniProt O43570)  1100 nM
1                             S=C(S)N1CCCC1  Carbonic anhydrase 12 (Homo sapiens, UniProt O43570)  46.1 nM
2  CN(C)C(=S)S [SODIUM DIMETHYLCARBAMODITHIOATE]  Carbonic anhydrase 12 (Homo sapiens, UniProt O43570)   798 nM

All figures here come from ChEMBL document CHEMBL2021877.
